B1: MIA2 (parent)
chain: DMVSNIELPTRIHEEVYFEPSSSK

- Variants of: B1
- PROCEDURE SUMMARY: protein stability index of a GFP-peptide fusion (GPS, HEK-293T) (PSI 1-6); higher = more stable;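 also: lentivirally expressed fusions sorted by FACS into six bins by GFP to DsRed ratio, PSI derived from sequencing read proportions per bin multiplied by bin number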
- EXPERIMENTAL CONTEXT: c terminus: a fixed tail appended
REPORTED ENDPOINT: protein stability index

- S23N: 3.98
- Y17H: 4.29
- Y17I: 3.94
- T10H: 4.47
- I12G: 4.39
